ASSAYED_TARGET: PRMT5/MEP50 complex (Homo sapiens, UniProt O14744)
Construct: purchased Reaction Biology Corporation
Sequence (O14744 2-637 limits assumed): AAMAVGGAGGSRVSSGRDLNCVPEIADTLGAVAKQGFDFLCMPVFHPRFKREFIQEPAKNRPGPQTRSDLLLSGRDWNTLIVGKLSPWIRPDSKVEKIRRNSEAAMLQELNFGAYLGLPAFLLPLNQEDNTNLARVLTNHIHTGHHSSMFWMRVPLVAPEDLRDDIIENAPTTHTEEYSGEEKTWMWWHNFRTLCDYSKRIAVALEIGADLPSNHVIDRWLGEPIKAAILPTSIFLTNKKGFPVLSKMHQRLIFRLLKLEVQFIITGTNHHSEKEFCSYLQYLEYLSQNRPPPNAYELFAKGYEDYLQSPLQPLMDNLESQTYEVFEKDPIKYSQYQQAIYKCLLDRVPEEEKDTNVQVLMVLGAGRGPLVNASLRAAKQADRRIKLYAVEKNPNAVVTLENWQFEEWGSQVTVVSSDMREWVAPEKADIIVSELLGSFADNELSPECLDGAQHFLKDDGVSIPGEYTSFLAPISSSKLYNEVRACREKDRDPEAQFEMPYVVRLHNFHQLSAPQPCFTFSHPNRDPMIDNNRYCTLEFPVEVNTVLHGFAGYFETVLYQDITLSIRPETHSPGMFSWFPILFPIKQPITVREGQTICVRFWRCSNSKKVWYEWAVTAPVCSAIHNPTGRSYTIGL
Sequence (Q9BQA1 2-342 partner limits assumed): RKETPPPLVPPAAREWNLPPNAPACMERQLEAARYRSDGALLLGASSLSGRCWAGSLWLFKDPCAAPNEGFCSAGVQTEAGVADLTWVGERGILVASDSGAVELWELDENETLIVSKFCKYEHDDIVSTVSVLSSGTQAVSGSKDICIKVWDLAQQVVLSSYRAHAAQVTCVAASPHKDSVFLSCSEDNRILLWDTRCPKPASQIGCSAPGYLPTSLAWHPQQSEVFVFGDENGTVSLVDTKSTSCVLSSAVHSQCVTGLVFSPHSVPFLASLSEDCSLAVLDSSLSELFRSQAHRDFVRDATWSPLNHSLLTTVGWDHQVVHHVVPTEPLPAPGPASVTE
ASSAY_INFO: PRMT5:MEP50 HotSpot Assay (full-length histone H2A substrate, plus and minus MTA)
Type: biochemical
SETTINGS: IC50 + 2 μM MTA, in the presence of 2 μM MTA
RECORDED_METRIC: IC50 (nM)

Worked cases, answers included:
>  <COMPOUND>
Cc1cc2ccccc2c(C#N)c1-c1c(-c2ccc3c(=O)[nH]nc(CN)c3c2)cnn1C (single isomer, unassigned) [Example 12-15A]

>  <ASSAYED_TARGET>
PRMT5/MEP50 complex (Homo sapiens, UniProt O14744)

>  <IC50, nM>
2380

$$$$
>  <COMPOUND>
Cn1ncc(-c2ccc3c(=O)[nH]nc(CN)c3c2)c1-c1c(Cl)cc2ccccc2c1C#N (single isomer, unassigned) [Example 16-127]

>  <ASSAYED_TARGET>
PRMT5/MEP50 complex (Homo sapiens, UniProt O14744)

>  <IC50, nM>
347

$$$$
>  <COMPOUND>
Cn1ncc(-c2ccc3c(=O)[nH]nc(CN)c3c2)c1-c1c(C(F)F)cc2ccccc2c1C#N (single isomer, unassigned) [Example 16-130]

>  <ASSAYED_TARGET>
PRMT5/MEP50 complex (Homo sapiens, UniProt O14744)

>  <IC50, nM>
92

$$$$

1. Cc1c(F)c(-c2c(-c3cc(Cl)c4c(=O)[nH]nc(CN)c4c3)cnn2C)c(C#N)c2ncc(Cl)cc12 (atropisomer, axis not shown; (M)) [Example 16-98]
2. Cc1cc(-c2cnn(C)c2-c2c(F)ccc(OC3CC3)c2C#N)cc2c(CN)n[nH]c(=O)c12 (atropisomer, axis not shown; (P)) [Example 16-47]
Input: So which one has the bigger IC50 here, 1 or 2 ? Bench note: the answer is the label of the chosen record.
Output: 1
(1: 552 nM, 2: 304 nM)

----------
ASSAYED_TARGET: PRMT5/MEP50 complex (Homo sapiens, UniProt O14744)
Construct: purchased Reaction Biology Corporation
ASSAY_INFO: PRMT5:MEP50 HotSpot Assay (full-length histone H2A substrate, plus and minus MTA)
Assay type: biochemical
SETTINGS: IC50 + 2 μM MTA, in the presence of 2 μM MTA
Description: The PRMT5 inhibitory activity of compounds of the present invention was determined using either a PRMT5:MEP50 FlashPlate Assay (Reaction Biology Corporation) or a PRMT5:MEP50 HotSpot Assay (Reaction Biology Corporation). The assay uses recombinant full-length hi stone H2A as the PRMT5 substrate. […] The reaction was stopped and transferred to filter paper for detection. The amount of tritiated H2A in each sample was determined using a scintillation counter.
RECORDED_METRIC: IC50 (nM)

Record excerpt, results attached:
>  <COMPOUND>
N#Cc1c(-c2c(-c3ccc4c(=O)[nH]nc(CN)c4c3)cnn2C(F)(F)F)sc2ccccc12

>  <MEASUREMENT_UNITS>
nM

>  <IC50>
647

$$$$
>  <COMPOUND>
CCOc1cc(-c2cnn(C)c2-c2c(F)c(C)c3ccccc3c2C#N)cc2c(CN)n[nH]c(=O)c12 (single isomer, unassigned) [Example 16-81]

>  <MEASUREMENT_UNITS>
nM

>  <IC50>
42.1

$$$$
>  <COMPOUND>
N#Cc1ccccc1-n1c(-c2ccc3c(=O)[nH]nc(CN)c3c2)cnc1CO

>  <MEASUREMENT_UNITS>
nM

>  <IC50>
3820

$$$$
>  <COMPOUND>
Cn1ncc(-c2ccc3c(=O)[nH]nc(CN)c3c2)c1-c1sc2c(OCC(F)F)cccc2c1C#N

>  <MEASUREMENT_UNITS>
nM

>  <IC50>
58.2

$$$$
>  <COMPOUND>
Cn1ncc(-c2ccc3c(=O)[nH]nc(CN)c3c2)c1-c1c(Cl)c(Cl)cc(OC2CC2)c1C#N (single isomer, unassigned) [Example 16-124]

>  <MEASUREMENT_UNITS>
nM

>  <IC50>
70

$$$$
>  <COMPOUND>
Cn1ncc(-c2ccc3c(=O)[nH]nc(CN)c3c2)c1-c1c(Cl)ccc(OC2CC2)c1C#N (atropisomer, axis not shown; (P)) [Example 16-131]

>  <MEASUREMENT_UNITS>
nM

>  <IC50>
347

$$$$
>  <COMPOUND>
Cn1ncc(-c2ccc3c(=O)[nH]nc(CN)c3c2)c1-c1c(F)cnc(OC2CC2)c1C#N (atropisomer, axis not shown; (P)) [Example 16-135]

>  <MEASUREMENT_UNITS>
nM

>  <IC50>
758

$$$$
>  <COMPOUND>
Cc1cc(-c2cnn(C)c2-c2c(F)cc3ccccc3c2C#N)cc2c(CN)n[nH]c(=O)c12 (single isomer, unassigned) [Example 16-16]

>  <MEASUREMENT_UNITS>
nM

>  <IC50>
13.6

$$$$
>  <COMPOUND>
Cn1ncc(-c2cc(Cl)c3c(=O)[nH]nc(CN)c3c2)c1-c1c(C#N)cc2ccccc2c1Cl (single isomer, unassigned) [Example 16-64]

>  <MEASUREMENT_UNITS>
nM

>  <IC50>
23.3

$$$$

I. Cc1cc(-c2cnn(C)c2-c2c(F)c(Cl)cc(OC3CC3)c2C#N)cc2c(CN)n[nH]c(=O)c12 (single isomer, unassigned) [Example 16-45]
II. Cn1ncc(-c2ccc3c(=O)[nH]nc(CN)c3c2)c1-c1c(F)c(Cl)cc(CC2CC2)c1C#N (single isomer, unassigned) [Example 16-125]
Input: Hey, between I and II which has a smaller measured IC50? Kindly state the label of the option you pick.
Output: I
